Data provenance: PubChem BioAssay AID2060906

# System: 485176-168-R4-J1-PDC complex spheroid growth
# assay-text: Anticancer human tumor 485176-168-R4-J1-PDC patient-derived pancreatic adenocarcinoma cell line growth inhibition [RAS]
# assay-setup: second compound 0.000949 µM; first compound 0.0316 µM; stronger effect = lower value
# From the text: RAS pathway inhibitors in Combinations in Complex Spheroids A high-throughput screen of multi-cell type tumor spheroids was designed to identify active combinations of RAS pathway inhibitors and targeted small molecules. Complex spheroids include a stromal component modeled by human endothelial cells (HUVEC) and fibroblasts modeled by human mesenchymal stem cells (MSCs). […] Compounds. […] If the clinical Cmax for an agent had not been determined, the highest concentration tested was 10 microM. […]
measurement-type: viability, T/C (%)
The answer is to be given in %; state only the numeric part.

Reported viability, T/C for CC(C)NCC(C(=O)N1CCN(c2ncnc3c2C(C)CC3O)CC1)c1ccc(Cl)cc1 (stereo not drawn) + CCn1c(-c2cccnc2C(C)OC)c2c3cc(ccc31)N1CCOC(CC(NC(=O)C(C(C)C)N(C)C(=O)C3(F)CCN(C(=O)C#CC(C)(C)N(C)C)CC3)C(=O)N3CCCC(N3)C(=O)OCC(C)(C)C2)C1 : what is it?
98.8

Reported viability, T/C for C=CC(=O)N1CCN(c2nc(OCC3CCCN3C)nc3c(F)c(-c4nc(N)cc(C)c4C(F)(F)F)c(Cl)cc23)C(C)C1 (stereo not drawn) + CCn1c(-c2cc(N3CCN(C)CC3)cnc2C(C)OC)c2c3cc(ccc31)-c1csc(n1)CC(NC(=O)C1CC1C)C(=O)N1CCCC(N1)C(=O)OCC(C)(C)C2 : what is it?
100

Reported viability, T/C for CC(C)n1nc(-c2ccc3oc(N)nc3c2)c2c(N)ncnc21 + CCn1c(-c2cc(N3CCN(C)CC3)cnc2C(C)OC)c2c3cc(ccc31)-c1csc(n1)CC(NC(=O)C1CC1C)C(=O)N1CCCC(N1)C(=O)OCC(C)(C)C2 : what is it?
37.4

----------
# Test system: 485176-168-R4-J1-PDC complex spheroid growth
# assay-text: Anticancer human tumor 485176-168-R4-J1-PDC cell line growth inhibition [RAS];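 also: spheroids exposed to compounds for seven days before readout; luminescence viability expressed relative to DMSO vehicle wells set as 100%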
# assay-setup: second compound 0.003 µM; first compound 0.1 µM; stronger effect = lower value
Please respond with reported viability, T/C for every item in the list.
The answer is to be given in %; state only the numeric part.

Identify the measured viability, T/C of CC1(O)CCCC1n1c(=O)c(C(F)F)cc2cnc(NC3CCN(S(C)(=O)=O)CC3)nc21 (configuration not stated) + CCn1c(-c2cc(N3CCN(C)CC3)cnc2C(C)OC)c2c3cc(ccc31)-c1csc(n1)CC(NC(=O)C1CC1C)C(=O)N1CCCC(N1)C(=O)OCC(C)(C)C2 for 485176-168-R4-J1-PDC complex spheroid growth.
56

Identify the measured viability, T/C of CCN1CCN(Cc2ccc(Nc3ncc(F)c(-c4cc(F)c5nc(C)n(C(C)C)c5c4)n3)nc2)CC1 + CCn1c(-c2cccnc2C(C)OC)c2c3cc(ccc31)N1CCOC(CC(NC(=O)C(C(C)C)N(C)C(=O)C3(F)CCN(C(=O)C#CC(C)(C)N(C)C)CC3)C(=O)N3CCCC(N3)C(=O)OCC(C)(C)C2)C1 for 485176-168-R4-J1-PDC complex spheroid growth.
99.3

----------
# System: 485176-168-R4-J1-PDC complex spheroid growth
# assay-text: Anticancer human tumor 485176-168-R4-J1-PDC cell line growth inhibition [RAS];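 also: spheroids exposed to compounds for seven days before readout; luminescence viability expressed relative to DMSO vehicle wells set as 100%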
# assay-setup: second compound 0.000949 µM; first compound 1 µM; stronger effect = lower value
measurement-type: viability, T/C (%)
The answer is to be given in %; state only the numeric part.

Reported viability, T/C for CC1(O)CCCC1n1c(=O)c(C(F)F)cc2cnc(NC3CCN(S(C)(=O)=O)CC3)nc21 (centres undefined) + CCn1c(-c2cc(N3CCN(C)CC3)cnc2C(C)OC)c2c3cc(ccc31)-c1csc(n1)CC(NC(=O)C1CC1C)C(=O)N1CCCC(N1)C(=O)OCC(C)(C)C2 : what is it?
48.1

Reported viability, T/C for Cc1nc(N2CCC3(CC2)COC(C)C3N)c(CO)nc1Sc1ccnc(N)c1Cl (centres undefined) + CCn1c(-c2cc(N3CCN(C)CC3)cnc2C(C)OC)c2c3cc(ccc31)-c1csc(n1)CC(NC(=O)C1CC1C)C(=O)N1CCCC(N1)C(=O)OCC(C)(C)C2 : what is it?
72.8

Reported viability, T/C for CCN1CCN(Cc2ccc(Nc3ncc(F)c(-c4cc(F)c5nc(C)n(C(C)C)c5c4)n3)nc2)CC1 + CCn1c(-c2cccnc2C(C)OC)c2c3cc(ccc31)N1CCOC(CC(NC(=O)C(C(C)C)N(C)C(=O)C3(F)CCN(C(=O)C#CC(C)(C)N(C)C)CC3)C(=O)N3CCCC(N3)C(=O)OCC(C)(C)C2)C1 : what is it?
64.5

Reported viability, T/C for C=CC(=O)N1CCN(c2nc(OCC3CCCN3C)nc3c(F)c(-c4nc(N)cc(C)c4C(F)(F)F)c(Cl)cc23)C(C)C1 (centres undefined) + CCn1c(-c2cccnc2C(C)OC)c2c3cc(ccc31)N1CCOC(CC(NC(=O)C(C(C)C)N(C)C(=O)C3(F)CCN(C(=O)C#CC(C)(C)N(C)C)CC3)C(=O)N3CCCC(N3)C(=O)OCC(C)(C)C2)C1 : what is it?
89.4

Reported viability, T/C for Nc1ccn(C2OC(CO)C(O)C2(F)F)c(=O)n1 (centres undefined) + CCn1c(-c2cccnc2C(C)OC)c2c3cc(ccc31)N1CCOC(CC(NC(=O)C(C(C)C)N(C)C(=O)C3(F)CCN(C(=O)C#CC(C)(C)N(C)C)CC3)C(=O)N3CCCC(N3)C(=O)OCC(C)(C)C2)C1 : what is it?
9.82

Reported viability, T/C for C=CC(=O)Nc1cc(Nc2nccc(-c3cn(C)c4ccccc34)n2)c(OC)cc1N(C)CCN(C)C + CCn1c(-c2cc(N3CCN(C)CC3)cnc2C(C)OC)c2c3cc(ccc31)-c1csc(n1)CC(NC(=O)C1CC1C)C(=O)N1CCCC(N1)C(=O)OCC(C)(C)C2 : what is it?
69.4

Reported viability, T/C for C[C@@H](NC(=O)c1ncnc(N)c1Cl)c1ncc(C(=O)Nc2cc(C(F)(F)F)c(Cl)cn2)s1 + CCn1c(-c2cc(N3CCN(C)CC3)cnc2C(C)OC)c2c3cc(ccc31)-c1csc(n1)CC(NC(=O)C1CC1C)C(=O)N1CCCC(N1)C(=O)OCC(C)(C)C2 : what is it?
67.5

Reported viability, T/C for CC(=O)OC12COC1CC(O)C1(C)C(=O)C(O)C3=C(C)C(OC(=O)C(O)C(NC(=O)OC(C)(C)C)c4ccccc4)CC(O)(C(OC(=O)c4ccccc4)C21)C3(C)C (centres undefined) + CCn1c(-c2cccnc2C(C)OC)c2c3cc(ccc31)N1CCOC(CC(NC(=O)C(C(C)C)N(C)C(=O)C3(F)CCN(C(=O)C#CC(C)(C)N(C)C)CC3)C(=O)N3CCCC(N3)C(=O)OCC(C)(C)C2)C1 : what is it?
10.7

Reported viability, T/C for CC1(O)CCCC1n1c(=O)c(C(F)F)cc2cnc(NC3CCN(S(C)(=O)=O)CC3)nc21 (centres undefined) + CCn1c(-c2cccnc2C(C)OC)c2c3cc(ccc31)N1CCOC(CC(NC(=O)C(C(C)C)N(C)C(=O)C3(F)CCN(C(=O)C#CC(C)(C)N(C)C)CC3)C(=O)N3CCCC(N3)C(=O)OCC(C)(C)C2)C1 : what is it?
78.2

Reported viability, T/C for CC(C)NCC(C(=O)N1CCN(c2ncnc3c2C(C)CC3O)CC1)c1ccc(Cl)cc1 (centres undefined) + CCn1c(-c2cc(N3CCN(C)CC3)cnc2C(C)OC)c2c3cc(ccc31)-c1csc(n1)CC(NC(=O)C1CC1C)C(=O)N1CCCC(N1)C(=O)OCC(C)(C)C2 : what is it?
64.8

Reported viability, T/C for O=C(c1ccc(F)c(F)c1Nc1ccc(I)cc1F)N1CC(O)([C@@H]2CCCCN2)C1 + CCn1c(-c2cccnc2C(C)OC)c2c3cc(ccc31)N1CCOC(CC(NC(=O)C(C(C)C)N(C)C(=O)C3(F)CCN(C(=O)C#CC(C)(C)N(C)C)CC3)C(=O)N3CCCC(N3)C(=O)OCC(C)(C)C2)C1 : what is it?
39.9

Reported viability, T/C for NC1c2ccccc2OC12CCN(c1cnc3c(N4CCCc5ncccc54)n[nH]c3n1)CC2 (centres undefined) + CCn1c(-c2cc(N3CCN(C)CC3)cnc2C(C)OC)c2c3cc(ccc31)-c1csc(n1)CC(NC(=O)C1CC1C)C(=O)N1CCCC(N1)C(=O)OCC(C)(C)C2 : what is it?
85

Reported viability, T/C for Cc1nc(N2CCC3(CC2)COC(C)C3N)c(CO)nc1Sc1ccnc(N)c1Cl (centres undefined) + CCn1c(-c2cccnc2C(C)OC)c2c3cc(ccc31)N1CCOC(CC(NC(=O)C(C(C)C)N(C)C(=O)C3(F)CCN(C(=O)C#CC(C)(C)N(C)C)CC3)C(=O)N3CCCC(N3)C(=O)OCC(C)(C)C2)C1 : what is it?
85.1

Reported viability, T/C for CC(Nc1ccc2c(c1)OCCn1cc(N3C(=O)OCC3C(F)F)nc1-2)C(N)=O (centres undefined) + CCn1c(-c2cc(N3CCN(C)CC3)cnc2C(C)OC)c2c3cc(ccc31)-c1csc(n1)CC(NC(=O)C1CC1C)C(=O)N1CCCC(N1)C(=O)OCC(C)(C)C2 : what is it?
79.8
